# system under test: human Nav1.8 (hNav1.8) ion channel (Homo sapiens, UniProt Q9Y5Y9)
# Construct: expressed in transfected cells
# Sequence (Q9Y5Y9 whole entry): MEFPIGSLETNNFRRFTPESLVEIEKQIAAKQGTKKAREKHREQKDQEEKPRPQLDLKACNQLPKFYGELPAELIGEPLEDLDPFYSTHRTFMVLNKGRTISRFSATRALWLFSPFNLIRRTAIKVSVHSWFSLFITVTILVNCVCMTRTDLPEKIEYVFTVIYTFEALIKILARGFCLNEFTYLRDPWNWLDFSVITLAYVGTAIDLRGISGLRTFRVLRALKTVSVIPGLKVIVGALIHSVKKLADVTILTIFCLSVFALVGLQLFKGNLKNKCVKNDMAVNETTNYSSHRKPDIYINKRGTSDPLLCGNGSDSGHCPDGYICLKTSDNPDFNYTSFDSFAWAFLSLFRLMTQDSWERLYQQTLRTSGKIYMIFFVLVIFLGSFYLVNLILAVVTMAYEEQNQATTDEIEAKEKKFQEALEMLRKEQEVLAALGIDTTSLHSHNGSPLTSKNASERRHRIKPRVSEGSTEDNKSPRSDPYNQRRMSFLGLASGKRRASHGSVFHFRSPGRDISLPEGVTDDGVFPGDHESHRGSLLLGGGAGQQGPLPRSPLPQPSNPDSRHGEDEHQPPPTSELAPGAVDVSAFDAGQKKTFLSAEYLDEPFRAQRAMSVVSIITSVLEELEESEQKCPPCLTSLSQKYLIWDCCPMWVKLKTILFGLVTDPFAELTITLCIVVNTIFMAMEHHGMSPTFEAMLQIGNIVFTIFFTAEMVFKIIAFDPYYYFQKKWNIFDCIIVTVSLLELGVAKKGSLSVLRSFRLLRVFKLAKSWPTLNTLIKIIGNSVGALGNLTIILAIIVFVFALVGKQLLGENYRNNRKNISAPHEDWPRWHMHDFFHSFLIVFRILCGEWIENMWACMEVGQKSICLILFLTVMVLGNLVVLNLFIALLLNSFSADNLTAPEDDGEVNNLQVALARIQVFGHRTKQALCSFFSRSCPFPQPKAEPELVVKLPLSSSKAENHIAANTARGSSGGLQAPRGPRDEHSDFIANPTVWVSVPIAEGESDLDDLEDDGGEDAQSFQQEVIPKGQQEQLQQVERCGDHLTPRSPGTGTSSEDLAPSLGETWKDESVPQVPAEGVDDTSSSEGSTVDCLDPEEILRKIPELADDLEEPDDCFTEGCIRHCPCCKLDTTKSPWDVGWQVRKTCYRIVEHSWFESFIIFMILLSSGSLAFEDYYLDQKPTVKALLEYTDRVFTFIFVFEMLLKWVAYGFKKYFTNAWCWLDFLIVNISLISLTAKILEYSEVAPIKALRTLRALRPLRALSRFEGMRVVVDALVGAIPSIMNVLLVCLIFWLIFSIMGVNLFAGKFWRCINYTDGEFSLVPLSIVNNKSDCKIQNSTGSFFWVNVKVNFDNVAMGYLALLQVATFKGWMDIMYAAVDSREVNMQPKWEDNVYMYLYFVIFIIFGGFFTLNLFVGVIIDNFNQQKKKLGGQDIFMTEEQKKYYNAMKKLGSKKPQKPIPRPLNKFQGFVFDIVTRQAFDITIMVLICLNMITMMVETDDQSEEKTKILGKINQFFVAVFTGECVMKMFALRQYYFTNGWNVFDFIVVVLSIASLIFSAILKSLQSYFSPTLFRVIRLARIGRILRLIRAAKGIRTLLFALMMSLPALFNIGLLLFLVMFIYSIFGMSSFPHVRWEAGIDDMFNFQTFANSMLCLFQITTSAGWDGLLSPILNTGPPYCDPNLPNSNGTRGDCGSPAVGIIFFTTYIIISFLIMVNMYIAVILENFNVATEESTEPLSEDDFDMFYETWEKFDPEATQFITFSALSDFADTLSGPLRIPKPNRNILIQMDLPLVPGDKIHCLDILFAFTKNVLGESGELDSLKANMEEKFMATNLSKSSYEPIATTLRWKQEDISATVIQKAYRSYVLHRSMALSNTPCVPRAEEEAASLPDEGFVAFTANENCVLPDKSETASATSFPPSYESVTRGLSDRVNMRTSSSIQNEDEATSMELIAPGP
# assay text: Inhibition of human Nav1.8 stably expressed in SH-SY-5Y cells (membrane potential dye fluorescence assay)
# Format: cell-based
# run parameters: Table 2 (compound numbers of the list in the description); SH-SY-5Y hNav1.8 cells, inhibition of membrane depolarisation, FLIPR membrane potential dye, 250 nM TTX, test concentration range 100 μM-0.05 μM; read-out: IC50
measurement type: IC50 (nM)
Could you give me the number in nM? Just the number is fine.

Below, each entry is followed by its recorded IC50 result.
{"columns": ["compound", "scale unit", "IC50"],
 "data": [
  ["CC(=O)c1ccc2c(c1)N(C(=O)CN1CCc3cccc(O)c3C1)c1ccccc1S2", "nM", 2040],
  ["O=C(NCCN1CCc2cccc(O)c2C1)N1c2ccccc2Sc2ccccc21", "nM", 950],
  ["O=C(CN1CCc2ccc(O)cc2C1)N1c2ccccc2Oc2ccccc21", "nM", 3170]
]}

Record `O=C(CN1CCc2ccccc2C1)NC(c1ccc(F)cc1)c1ccc(F)cc1` has human Nav1.8 (hNav1.8) ion channel (Homo sapiens, UniProt Q9Y5Y9) IC50 equal to 1910

Record `Nc1cccc2c1CN(CCC(=O)NCCC(c1ccccc1)c1ccccc1)CC2` / human Nav1.8 (hNav1.8) ion channel (Homo sapiens, UniProt Q9Y5Y9), IC50 recorded as 650

Given the compound `COc1cc2c(cc1OC)CN(CC(=O)N1c3ccccc3Sc3ccc(C(F)(F)F)cc31)CC2` and test system human Nav1.8 (hNav1.8) ion channel (Homo sapiens, UniProt Q9Y5Y9), the measured IC50 is 12400

Assay human Nav1.8 (hNav1.8) ion channel (Homo sapiens, UniProt Q9Y5Y9), sample `Nc1cccc2c1CN(CCCC(c1ccc(F)cc1)c1ccc(F)cc1)CC2` , IC50 read: 480

Reported IC50 (human Nav1.8 (hNav1.8) ion channel (Homo sapiens, UniProt Q9Y5Y9)) for entry COc1cccc2c1CN(CC(=O)N1c3ccccc3OCC1c1ccc(F)cc1)CC2 (stereo not drawn) is 1110

# `COc1ccc(N(C(=O)CN2CCc3cccc(OC)c3C2)c2ccc(OC)cc2)cc1` with human Nav1.8 (hNav1.8) ion channel (Homo sapiens, UniProt Q9Y5Y9): IC50 is 2140

Note to self: IC50 of `CCOc1cccc2c1CN(CC(=O)N(Cc1ccccc1)Cc1ccccc1)CC2` with human Nav1.8 (hNav1.8) ion channel (Homo sapiens, UniProt Q9Y5Y9) was 6980

Entry `COc1cc2c(cc1OC)CN(CCC(=O)NCCC(c1ccccc1)c1ccccc1)CC2` , human Nav1.8 (hNav1.8) ion channel (Homo sapiens, UniProt Q9Y5Y9) data, IC50 value: 380

###

# system under test: human Nav1.8 (hNav1.8) ion channel (Homo sapiens)
# Construct: expressed in transfected cells
# assay text: Inhibition of human Nav1.8 stably expressed in SH-SY-5Y cells (membrane potential dye fluorescence assay)
# Type: cell-based
# run parameters: Table 1; SH-SY-5Y hNav1.8 cells, inhibition of membrane depolarisation, FLIPR membrane potential dye, 250 nM TTX, test concentration range 100 μM-0.05 μM; read-out: IC50
measurement type: IC50 (nM)
Numeric answer only, unit nM assumed.

Record excerpt, results attached:
{"columns": ["compound", "IC50 [nM]"],
 "data": [
  ["Oc1cccc2c1CN(CC(c1ccccc1)c1ccccc1)CC2", 600],
  ["COc1cccc2c1CN(C(=S)NCC(c1ccccc1)c1ccccc1)CC2", 4680],
  ["O=C(CNCC(c1ccccc1)c1ccccc1)N1CCc2ccccc2C1", 230],
  ["O=C(CN1CCc2cccc(O)c2C1)N(Cc1ccccc1)Cc1ccccc1", 260],
  ["COc1ccc2c(c1)CN(CCN(Cc1ccccc1)Cc1ccccc1)CC2", 580],
  ["COc1cccc2c1CN(CC(=O)N1CCN(C(c3ccccc3)c3ccccc3)CC1)CC2", 5630],
  ["O=C(CN1CCc2cccc(O)c2C1)N1c2ccccc2OCC1c1ccccc1 (centres unmarked)", 2140],
  ["COc1cccc2c1CN(CC(=O)NCC(c1ccccc1)c1ccccc1)CC2", 2560]
]}

Entry `COc1cccc2c1CN(C(=O)CNCC(c1ccccc1)c1ccccc1)CC2` ; IC50 = 450

For record `O=C(CON=C(c1ccccc1)c1ccccc1)N1CCc2ccccc2C1` the listed IC50 is 1050

Note to self: IC50 recorded for `O=C(CN1Cc2ccccc2C1)N1CCN(C(c2ccccc2)c2ccccc2)CC1` was 2350

For `O=C(CN1CCc2ccccc2C1)NCCC(c1ccccc1)c1ccccc1` the compound record lists IC50 as 680

// field: IC50; key: `COc1ccc2c(c1)CN(CCNCCC(c1ccccc1)c1ccccc1)CC2` ; value = 490

For record `c1ccc(C(CN2CCc3ccccc3C2)c2ccccc2)cc1` the listed IC50 is 990
